Biological target: polypeptide HER2/ECD (human, UniProt P04626 23-646)
Test: SPR (BIAcore), HER2/ECD immobilized, IgG in flow
Endpoint name: koff

Q. # return recorded koff for entry M61 (antibody) MAELDIKITQSPASLSASVGETVTITCRASENIYSYLAWYQQKQGKSPQLLVYNAKTLAEGVPSRFSGSGSGTQFSLKINSLQPEDFGSYYCQHHYGTPYTFGGGTKLELKSSGGGGSGGGGGGSSRSSLEVQLQQSGAELVKPGASVKMSCKAFGYTFTTYPIEWMKQNHGKSLEWIGNFHPYNDDTKYNEKFKGKAKLTVEKSSSTVYLELSRLTSDDSAVYYCARRNDGYYGAMDYWGQGTSVTVSSAKTTAPSVTSAAAGAPVPYPDPLEPRAA
A. 0.0024 s⁻¹

Q. Read the entry M62 (antibody, also called antibody M62) MAELDIQMIQSQKFMSTSVGDRVSVTCKASQNVGTNVAWYQQKPGQSPKALIHSASYRYSGVPDRFTGSGSGTDFTLTISNVQSEDLAEYFCQQYNSYPLTFGAGTKLEIKSSGGGGSGGGGGGSSRSSLEVQLQQSGTELARPGASVKLSCKASGYTFIDYYITWVKQRTGQGLEWIGEIYPGGGNPYYNDNFKGKASLTADKSSNTVYMQLSSLTSEDSAVYFCARSYKYDVSVYWGQGTLVTVSAAKTTPPSVTSAAAGAPVPYPDPLEPRAA and write its reported koff.
A. 1.8e-05 s⁻¹

Q. Look up and state reported koff for M41 (antibody, also called antibody M41) MAELDIQMTQTTSSLSASLGDRVTISCRTSQDISNYLNWYQQKPNGTIKLLIYYTSGLYSGVPSRFSGSGSGADYSLTISNVEQEDIATYFCQQVNTLPYTFGGGTKLELKSSGGGGSGGGGGGSSRSSFEVQLQQSGAELVKPGASVKMSCKAFGYTFTTYPIEWMKQNHGKSLEWIGNFHPYNDYTNYNEKFKGKAKLTVEKSSTTVYLELSRLTSDDSAVYYCARRHDGYYGAMDYWGQGTSVTVSSAKTTAPSVTSAAAGAPVPYPDPLEPRAA
A. 3.48e-05 s⁻¹

Q. Return koff (reported value) for this binder: M32 (antibody, also called antibody M32) MAELGIELTQSQKFMSTSVGDRVSITCKASQNVGTAVAWYQQKPGQSPKLLIYSASNRYTGVPDRFTGSGSGTDFTLTISNMQSEDLADYFCQQYSSYPLAFGGGTKLEIKSSGGGGSGGGGGGSSRSSLEVQLVESGAELVRPGALVKLSCKASGFNIKDYFMYWVKQRPEQGLEWVGWIDPENGNTIYDPKFQGKASITADTSSNTAYLQLSSLTSEDTAVYYCTRGYYGSRVLAMDYWGQGTSVTVSSAKTTPPSVTSAAA
A. 7.15e-05 s⁻¹

Q. Indicate its recorded koff; the binder in question is M64 (antibody) MAELDIQMNQSHKFMSTSVGDRVSITCKASQDVSTAVAWYQQKPGQSPKLLIYWASTRHTGVPGRFTGSGSGADYTLTISSVQAEDLALYYCQQHYSTPYTFGGGTKLEIKSSGGGGSGGGGGGSSRSSLEVQLQQSGAELVKPGASVKLSCTASGFNIKNTYMHWVKQRPEQGLEWIGRIDPANGNTKYDPKLQGKATITADTSSNTAYLHLSSLTSEDTAVYYCVPYYRGAMDYWGQGTSVTVSSESQSFPNVTSAAAGAPVPYPDPLEPRAA
A. 0.000337 s⁻¹

Q. Recall and state the measured koff for H32 (antibody, also called antibody H32) DIQMTQSPSSLSASVGDRVTITCKASQNVGTAVAWYQQKPGKAPKLLIYSASNRYTGVPSRFSGSGSGTDFTLTISSLQPEDFATYYCQQYSSYPLAFGQGTKVEIKRGGGGSIEGRSGGGGSEVQLVESGGGLVQPGGSLRLSCKASGFNIKDYFMYWVRQAPGKGLEWVGWIDPENGNTIYDPKFQGRFTISADTSKNTAYLQMNSLRAEDTAVYYCTRGYYGSRVLAMDYWGQGTLVTVSSASAAA .
A. 3.85e-05 s⁻¹

Q. Look up and state reported koff for M63 (antibody) MAELDAVVTQESALTTSPGETVTLTCRSSTGTVTTSNYANWVQEKPDHLFTGLIGGTKNRAPGVPARFSGSLIGDKAALTITGAQTEDEAIYFCALWYSNHWVFGGGTKLTVLGSSGGGGSGGGGGGSSRSSLEVQLQQSGPELVRPGDSVKISCKASGYTFSDYAVHWVKRSHGKSLEWIGVISIYYDNINYNQNFKGKATMTVDKSSSTAYLELARLTSEDSAIYYCARRGFDYWGPGTTLTVSSAKTTAPSVTSAAA
A. 7.34e-05 s⁻¹

Values from patent US20180009877A1
